- TARGET OR TEST SYSTEM: ROCK2 (Homo sapiens, UniProt O75116)
- Construct: purchased Upstate/Chemicon 14-451
- Sequence (O75116 11-552 limits assumed): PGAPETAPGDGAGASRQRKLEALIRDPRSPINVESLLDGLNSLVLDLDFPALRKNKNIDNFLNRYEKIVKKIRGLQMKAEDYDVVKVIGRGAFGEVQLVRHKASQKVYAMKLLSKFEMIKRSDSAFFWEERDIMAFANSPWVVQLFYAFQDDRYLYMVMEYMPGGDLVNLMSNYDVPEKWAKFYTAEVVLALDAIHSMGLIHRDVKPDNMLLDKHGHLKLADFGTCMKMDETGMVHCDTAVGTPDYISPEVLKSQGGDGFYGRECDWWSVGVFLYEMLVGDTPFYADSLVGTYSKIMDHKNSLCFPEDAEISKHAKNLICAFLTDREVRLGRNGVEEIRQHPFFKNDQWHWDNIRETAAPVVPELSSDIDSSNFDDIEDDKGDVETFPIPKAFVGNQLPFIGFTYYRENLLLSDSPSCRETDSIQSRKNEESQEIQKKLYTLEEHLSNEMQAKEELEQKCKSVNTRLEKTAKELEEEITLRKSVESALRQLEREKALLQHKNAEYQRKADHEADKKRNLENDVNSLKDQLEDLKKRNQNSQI
- RUN DESCRIPTION: Rho kinase inhibition assay (IMAP fluorescence polarization), ROCK2;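 further: kinase reaction started with 10 µM ATP and run 60 min at room temperature, then phosphorylated substrate captured on IMAP beads for 30 min and fluorescence polarization read in mP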
- Assay type: biochemical
- RECORDED CONDITIONS: average Ki; read-out: ROCK2 Ki
In plain terms, low Ki, meaning strictly below 6 nM, gives 1, and everything else gives 0.

{"columns": ["ENTRY SMILES", "GROUP"],
 "data": [
  ["NC(=O)Cn1ccc2cc(CN3CCC[C@H](Nc4ccc5[nH]ncc5c4)C3)ccc21", 1],
  ["c1cc2cc(CN3CCC[C@H](Nc4ccc5[nH]ncc5c4)C3)ccc2o1", 1],
  ["CS(=O)(=O)Nc1cc(CN2CCC[C@@H](Nc3ccc4[nH]ncc4c3)C2)ccc1Cl", 1],
  ["NC(=O)Cn1ccc2cc(CN3CC[C@@H](Nc4cccc5cnccc45)C3)ccc21", 1],
  ["Cc1ccc(CN2CCC[C@@H](Nc3ccc4[nH]ncc4c3)C2)cc1OCC(N)=O", 0],
  ["NC(=O)COc1cccc(CN2CCC[C@H](Nc3ccc4[nH]ncc4c3)C2)c1", 0],
  ["CS(=O)(=O)Nc1cc(CN2CCC[C@H](Nc3ccc4[nH]ncc4c3)C2)ccc1Cl", 1],
  ["OCCn1ccc2ccc(CN3CCC[C@@H](Nc4ccc5[nH]ncc5c4)C3)cc21", 0]
]}

----------
ERK2 Percent inhibition, 10 μM reference
- TARGET OR TEST SYSTEM: ERK2 (Homo sapiens)
- Construct: purchased Upstate, Millipore Bioscience Division (KinaseProfiler service)
- Sequence (P28482 whole entry): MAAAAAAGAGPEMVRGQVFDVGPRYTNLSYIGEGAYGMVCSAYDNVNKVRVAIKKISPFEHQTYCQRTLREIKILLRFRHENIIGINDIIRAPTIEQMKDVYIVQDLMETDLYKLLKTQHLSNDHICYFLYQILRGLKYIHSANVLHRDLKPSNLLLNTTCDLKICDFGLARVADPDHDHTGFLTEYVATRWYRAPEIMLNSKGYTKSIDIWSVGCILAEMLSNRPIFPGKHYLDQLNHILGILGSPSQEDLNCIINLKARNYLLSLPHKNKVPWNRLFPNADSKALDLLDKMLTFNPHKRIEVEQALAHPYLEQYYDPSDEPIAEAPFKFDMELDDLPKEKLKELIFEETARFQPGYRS
- RUN DESCRIPTION: Kinase panel screen (KinaseProfiler), ERK2
- Assay type: biochemical

{"columns": ["MOLECULE", "ERK2 Percent inhibition, 10 μM / %"],
 "data": [
  ["Cc1ccc(CN2CCC[C@@H](Nc3ccc4[nH]ncc4c3)C2)cc1OCCO [Compound 1.161]", 92],
  ["OCCn1ccc2cc(CN3CC[C@@H](Nc4cccc5cnccc45)C3)ccc21 [Compound 2.066]", 12],
  ["NC(=O)Cn1ccc2cc(CN3CC[C@@H](Nc4cccc5cnccc45)C3)ccc21 [Compound 2.059]", 12],
  ["NC(=O)Cn1ccc2cc(CN3CCC[C@@H](Nc4ccc5[nH]ncc5c4)C3)ccc21 [Compound 1.162]", 60]
]}

----------
pKi reference
- TARGET OR TEST SYSTEM: ROCK1 (Homo sapiens)
- Construct: purchased Upstate/Chemicon 14-601
- Sequence (Q13464 17-535 limits assumed): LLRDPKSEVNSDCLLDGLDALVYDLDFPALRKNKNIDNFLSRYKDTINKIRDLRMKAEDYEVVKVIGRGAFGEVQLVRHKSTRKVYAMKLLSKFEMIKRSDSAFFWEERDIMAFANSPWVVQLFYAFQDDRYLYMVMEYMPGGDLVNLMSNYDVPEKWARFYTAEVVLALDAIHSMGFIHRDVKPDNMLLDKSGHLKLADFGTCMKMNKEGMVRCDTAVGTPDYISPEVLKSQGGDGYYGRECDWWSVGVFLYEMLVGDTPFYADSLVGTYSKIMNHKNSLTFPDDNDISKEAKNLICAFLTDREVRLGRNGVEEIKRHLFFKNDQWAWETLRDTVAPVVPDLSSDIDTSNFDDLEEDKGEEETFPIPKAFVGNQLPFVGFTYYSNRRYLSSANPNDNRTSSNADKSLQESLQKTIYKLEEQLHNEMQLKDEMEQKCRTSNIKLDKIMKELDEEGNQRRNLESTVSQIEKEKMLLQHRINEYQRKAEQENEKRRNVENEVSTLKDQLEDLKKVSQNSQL
- RUN DESCRIPTION: Rho kinase inhibition assay (IMAP fluorescence polarization), ROCK1
- Type: biochemical
- RECORDED CONDITIONS: Avg, 10 μM ATP
pKi: −log10 of the molar value.

{"columns": ["MOLECULE", "pKi"],
 "data": [
  ["COc1ccc(CN2CC[C@@H](Nc3cccc4cnccc34)C2)cc1NS(C)(=O)=O", 6.42],
  ["NC(=O)Cn1ccc2cc(CN3CC[C@@H](Nc4cccc5cnccc45)C3)ccc21", 8.41],
  ["Cc1nc(CN2CC[C@@H](Nc3cccc4cnccc34)C2)c(C)o1", 6.11],
  ["c1cc2c(cc1CN1CCC[C@@H](Nc3ccc4[nH]ncc4c3)C1)OCCO2", 6.81],
  ["Cc1nc(CN2CCC[C@H](Nc3ccc4[nH]ncc4c3)C2)c(C)o1", 6.34],
  ["c1cc(N[C@@H]2CCN(Cc3nc4ccccc4[nH]3)C2)c2ccncc2c1", 6.88],
  ["O=C(COc1cccc(CN2CC[C@@H](Nc3cccc4cnccc34)C2)c1)N1CCOCC1", 7.31],
  ["Oc1cccc(CN2CCC[C@H](Nc3ccc4[nH]ncc4c3)C2)c1", 7.47],
  ["COc1ccc(CN2CC[C@@H](Nc3cccc4cnccc34)C2)cc1OCCO", 7.71],
  ["CC(C)(C)OC(=O)NCc1ccc(CN2CCC[C@H](Nc3ccc4[nH]ncc4c3)C2)cc1", 5.73],
  ["CSc1ccc(CN2CCC[C@H](Nc3ccc4[nH]ncc4c3)C2)cc1", 7.31],
  ["OCCOc1cccc(CN2CC[C@@H](Nc3cccc4cnccc34)C2)c1", 7.73],
  ["Cc1ccc(CN2CCC[C@H](Nc3ccc4[nH]ncc4c3)C2)cc1OCCO", 7.70],
  ["c1cc(CN2CCC[C@@H](Nc3ccc4[nH]ncc4c3)C2)cc(C2CC2)c1", 6.69],
  ["NC(=O)Cn1ccc2ccc(CN3CCC[C@@H](Nc4ccc5[nH]ncc5c4)C3)cc21", 6.65],
  ["COc1ccc(CN2CC[C@@H](Nc3ccc4[nH]ncc4c3)C2)cc1", 6.70],
  ["NC(=O)c1cccc(CN2CCC[C@@H](Nc3ccc4[nH]ncc4c3)C2)c1", 6.58],
  ["CCS(=O)(=O)Nc1cc(CN2CCC[C@@H](Nc3ccc4[nH]ncc4c3)C2)ccc1C", 7.71],
  ["OCCn1ccc2ccc(CN3CCC[C@@H](Nc4ccc5[nH]ncc5c4)C3)cc21", 7.59],
  ["O=S(=O)(Nc1cccc(CN2CCC[C@H](Nc3ccc4[nH]ncc4c3)C2)c1)N1CCCCC1", 6.88],
  ["NC(=O)COc1cccc(CN2CCC[C@H](Nc3ccc4[nH]ncc4c3)C2)c1", 6.71],
  ["c1ccc(CN2CCC[C@H](Nc3cccc4cnccc34)C2)cc1", 6.43],
  ["C#Cc1cccc(CN2CCC[C@@H](Nc3ccc4[nH]ncc4c3)C2)c1", 7.19],
  ["Clc1ccc(CN2CCC(Nc3cccc4cnccc34)C2)cc1Cl (stereo not shown)", 7.00],
  ["CS(=O)(=O)Nc1cc(CN2CCC[C@H](Nc3ccc4[nH]ncc4c3)C2)ccc1Cl", 6.97],
  ["CS(=O)(=O)c1ccc(CN2CCC[C@@H](Nc3ccc4[nH]ncc4c3)C2)cc1", 6.30],
  ["Oc1cccc(CN2CC[C@@H](Nc3cccc4cnccc34)C2)c1", 7.98],
  ["OCc1ccc(CN2CCC[C@H](Nc3ccc4[nH]ncc4c3)C2)cc1", 6.62],
  ["CSc1cccc(CN2CCC[C@@H](Nc3ccc4[nH]ncc4c3)C2)c1", 7.32],
  ["Cn1ccnc1CN1CCC[C@H](Nc2ccc3[nH]ncc3c2)C1", 5.89],
  ["Brc1cccc(CN2CCC[C@H](Nc3ccc4[nH]ncc4c3)C2)c1", 6.78],
  ["OCCn1cc(CN2CCC[C@@H](Nc3ccc4[nH]ncc4c3)C2)c2ccccc21", 7.50],
  ["Clc1ccc(CN2CCC[C@@H](Nc3ccc4[nH]ncc4c3)C2)cc1", 7.65],
  ["CC(C)(C)OC(=O)NCc1cccc(CN2CCC[C@@H](Nc3ccc4[nH]ncc4c3)C2)c1", 6.63]
]}
